- System: Escherichia coli TOP10
- Test Summary: shrunken log2 fold change of peptide-encoding DNA abundance (4.5 h post-induction vs induction); higher = less antimicrobial activity (less host growth inhibition)
- Details: time post-induction: 4.5 h; library: site-saturation at positions 5, 18, 19, 20
sequences and their reported shrunken log2 fold change
Measure Name: shrunken log2 fold change

>>> df
         construct_sequence           tested_system  reported
 0  RRIRCRPPRLPRPRPRPMCHPRP  Escherichia coli TOP10    -0.662
 1  RRIRKRPPRLPRPRPRPLPPPRP  Escherichia coli TOP10      1.01
 2  RRIRTRPPRLPRPRPRPHAAPRP  Escherichia coli TOP10    0.0465
 3  RRIRRRPPRLPRPRPRPHGFPRP  Escherichia coli TOP10     0.114
 4  RRIRFRPPRLPRPRPRPYYRPRP  Escherichia coli TOP10    0.0478
 5  RRIRYRPPRLPRPRPRPSSAPRP  Escherichia coli TOP10    -0.197
 6  RRIRGRPPRLPRPRPRPTKFPRP  Escherichia coli TOP10     0.458
 7  RRIRCRPPRLPRPRPRPLEWPRP  Escherichia coli TOP10    0.0823
 8  RRIRWRPPRLPRPRPRPYFQPRP  Escherichia coli TOP10      1.83
 9  RRIRCRPPRLPRPRPRPINPPRP  Escherichia coli TOP10  -0.00918
10  RRIRMRPPRLPRPRPRPRPHPRP  Escherichia coli TOP10      1.05
11  RRIRFRPPRLPRPRPRPTSCPRP  Escherichia coli TOP10   -0.0685
12  RRIRVRPPRLPRPRPRPIFQPRP  Escherichia coli TOP10    -0.052
13  RRIRIRPPRLPRPRPRPAYHPRP  Escherichia coli TOP10    -0.639
14  RRIRWRPPRLPRPRPRPPIRPRP  Escherichia coli TOP10   -0.0117

====

- System: Escherichia coli TOP10;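 also: peptides expressed intracellularly from a pBAD plasmid library in pooled LB shake-flask culture, induced with 0.3% L-arabinose, DNA abundance read by NGS, three biological replicates, DESeq2 with apeglm shrinkage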
- Test Summary: shrunken log2 fold change of peptide-encoding DNA abundance (4.5 h post-induction vs induction); higher = less antimicrobial activity (less host growth inhibition)
- Details: time post-induction: 4.5 h; library: site-saturation at positions 5, 18, 19, 20
# label = bin(measured shrunken log2 fold change), where bins are group A: < -0.09; group B: ≥ -0.09 and < -0.007; group C: ≥ -0.007

         construct_sequence  assigned_class
 0  RRIRYRPPRLPRPRPRPVKRPRP         group C
 1  RRIRGRPPRLPRPRPRPYVVPRP         group B
 2  RRIRARPPRLPRPRPRPRHYPRP         group A
 3  RRIRMRPPRLPRPRPRPCSRPRP         group C
 4  RRIRYRPPRLPRPRPRPMWKPRP         group C
 5  RRIRFRPPRLPRPRPRPTWYPRP         group B
 6  RRIRARPPRLPRPRPRPEAMPRP         group C
 7  RRIRTRPPRLPRPRPRPPDDPRP         group C
 8  RRIRCRPPRLPRPRPRPVFYPRP         group A
 9  RRIRMRPPRLPRPRPRPHKHPRP         group A
10  RRIRVRPPRLPRPRPRPSRDPRP         group B
11  RRIRCRPPRLPRPRPRPFCNPRP         group A
12  RRIRQRPPRLPRPRPRPYMGPRP         group B
